Tested on: AGS cells (KRAS G12D)
protocol.notes: Cell viability assay (Cell Counting Kit-8, 3-day)
Type: cell-based, human
test.parameters: Homo sapiens, 72 h, 72 hrs incubation
Description: The purpose of this cellular assay was to determine the effects of test compounds on the proliferation of human cancer cell lines NCI-H358 (ATCC-CRL5807) cells, AGS (ATCC-CRL-1739) cells, SW620 (ATCC-CCL-227) over a 3-day treatment period by quantifying the amount of NADPH present at endpoint using Cell Counting Kit-8. Cells were seeded at 5,000 cells/well (NCI-H358), 2,000 cells/well (AGS) 2,000 cells/well (SW620) in 96-well assay plates (Corning-3699) and incubated overnight. […]
reported.metric: log10(IC50) (log10 of the value in nM)
On a log10 scale: recorded IC50, unit nM.

Hello, I am looking for reported log10(IC50) with AGS cells (KRAS G12D) for CO[C@@H](C)c1ncc(N2CCOCC2)cc1-c1c2c3cc(cc4c3n1CCO4)-c1csc(n1)C[C@H](NC(=O)[C@H]1[C@H](C)[C@@H]1C)C(=O)N1CCC[C@H](N1)C(=O)OCC(C)(C)C2 (atropisomer, axis not shown; (M)) [Example 68] . Could you help? 0.89

Item CO[C@@H](C)c1ncc(N2CCN(C)CC2)cc1-c1c2c3cc(cc4c3n1CCO4)-c1csc(n1)C[C@H](NC(=O)C1CC1c1ccc(F)cc1)C(=O)N1CCC[C@H](N1)C(=O)OCC(C)(C)C2 (stereo partly drawn) [Example 59] with AGS cells (KRAS G12D) - log10(IC50)? 1.94

Record lookup: for AGS cells (KRAS G12D), what log10(IC50) belongs to CO[C@@H](C)c1ncc(N2CCN(CC(F)(F)F)CC2)cc1-c1c2c3cc(cc4c3n1CCC4)-c1csc(n1)C[C@H](NC(=O)[C@H]1C[C@@H]1C(F)F)C(=O)N1CCC[C@H](N1)C(=O)OCC(C)(C)C2 (atropisomer, axis not shown; (M)) [Example 21] ? 1.75

Identify the measured log10(IC50) of CO[C@@H](C)c1ncc(N2CCN(CC(F)F)CC2)cc1-c1c2c3cc(cc4c3n1CCC4)-c1csc(n1)C[C@H](NC(=O)[C@H]1[C@H](C)[C@@H]1C)C(=O)N1CCC[C@H](N1)C(=O)OCC(C)(C)C2 (atropisomer, axis not shown) [Example 109] for AGS cells (KRAS G12D). 0.71

Enter reported log10(IC50) observed with AGS cells (KRAS G12D) for CO[C@@H](C)c1ncc(N2CCN3CCOC[C@@H]3C2)cc1-c1c2c3cc(cc4c3n1CCC4)-c1csc(n1)C[C@H](NC(=O)[C@H]1C[C@@H]1C)C(=O)N1CCC[C@H](N1)C(=O)OCC(C)(C)C2 (atropisomer, axis not shown; (M)) [Example 25] 1.51

Short answer please: log10(IC50), AGS cells (KRAS G12D), entry CO[C@@H](C)c1ncc(N2CCN(CCF)CC2)cc1-c1c2c3cc(cc4c3n1CCC4)-c1csc(n1)C[C@H](NC(=O)[C@H]1[C@H](C)[C@@H]1C)C(=O)N1CCC[C@H](N1)C(=O)OCC(C)(C)C2 (atropisomer, axis not shown; (M)) [Example 110] 0.41

Form entry - test system: AGS cells (KRAS G12D); read-out: log10(IC50); compound: CO[C@@H](C)c1ncc(N2CCN3CCOC[C@@H]3C2)cc1-c1c2c3cc(cc4c3n1CCC4)-c1csc(n1)C[C@H](NC(=O)[C@H]1C[C@@H]1c1cncnc1)C(=O)N1CCC[C@H](N1)C(=O)OCC(C)(C)C2 (atropisomer, axis not shown; (M)) [Example 105] 0.83

Give AGS cells (KRAS G12D) log10(IC50) for CO[C@@H](C)c1ncc(N2CCOCC2)cc1-c1c2c3cc(cc4c3n1CC(C)(C)O4)-c1csc(n1)C[C@H](NC(=O)[C@H]1C[C@@H]1C)C(=O)N1CCC[C@H](N1)C(=O)OCC(C)(C)C2 (atropisomer, axis not shown; (M)) [Example 38] 2.08

Form: Entry = CO[C@@H](C)c1ncc(N2CCN(CC(F)(F)F)CC2)cc1-c1c2c3cc(cc4c3n1CC(F)(F)C4)-c1csc(n1)C[C@H](NC(=O)[C@H]1[C@H](C)[C@@H]1C)C(=O)N1CCC[C@H](N1)C(=O)OCC(C)(C)C2 (atropisomer, axis not shown; (M)) [Example 87] | System = AGS cells (KRAS G12D) | log10(IC50) = ____ 1.76

Notebook: pull reported log10(IC50) for AGS cells (KRAS G12D), entry CO[C@@H](C)c1ncc(N2CCNCC2)cc1-c1c2c3cc(cc4c3n1CCC4)-c1csc(n1)C[C@H](NC(=O)[C@H]1[C@H](C)[C@@H]1C)C(=O)N1CCC[C@H](N1)C(=O)OCC(C)(C)C2 (atropisomer, axis not shown; (M)) [Example 108] 0.26

Reported log10(IC50) for AGS cells (KRAS G12D), given CO[C@@H](C)c1ncc(N2CCN(C)CC2)cc1-c1c2c3cc(cc4c3n1CCC4)-c1csc(n1)C[C@H](NC(=O)[C@H]1[C@H](C)[C@@H]1C)C(=O)N1CCC[C@H](N1)C(=O)OCC(C)(C)C2 (atropisomer, axis not shown; (M)) [Example 24] ? 0.67

Which log10(IC50) is reported with AGS cells (KRAS G12D) for this entry: CO[C@@H](C)c1ncc(N2CCN(CC(F)(F)F)CC2)cc1-c1c2c3cc(cc4c3n1CCC4)-c1csc(n1)C[C@H](NC(=O)[C@H]1C[C@@H]1c1cccnc1)C(=O)N1CCC[C@H](N1)C(=O)OCC(C)(C)C2 (atropisomer, axis not shown; (M)) [Example 90] ? 1.23

Query for AGS cells (KRAS G12D): what log10(IC50) does the record show for CO[C@@H](C)c1ncc(N2CCN(C)CC2)cc1-c1c2c3cc(cc4c3n1CC(F)(F)C4)-c1csc(n1)C[C@H](NC(=O)[C@H]1C[C@@H]1C(F)F)C(=O)N1CCC[C@H](N1)C(=O)OCC(C)(C)C2 (atropisomer, axis not shown; (M)) [Example 31] ? 1.34

What is its log10(IC50) for AGS cells (KRAS G12D)? Entry: CO[C@@H](C)c1ncc(N2CCOCC2)cc1-c1c2c3cc(cc4c3n1CCO4)-c1csc(n1)C[C@H](NC(=O)[C@H]1C[C@@H]1C)C(=O)N1CCC[C@H](N1)C(=O)OCC(C)(C)C2 (atropisomer, axis not shown; (M)) [Example 8] 1.27

Lab request: please report log10(IC50) under test system AGS cells (KRAS G12D) for CO[C@@H](C)c1ncc(N2CCN(C)CC2)cc1-c1c2c3cc(cc4c3n1CCO4)-c1csc(n1)C[C@H](NC(=O)[C@H]1[C@H](C)[C@@H]1C)C(=O)N1CCC[C@H](N1)C(=O)OCC(C)(C)C2 (atropisomer, axis not shown; (M)) [Example 45] 0.56

Values compiled from patent US20240417410A1.
